Test: Kinetic permeation assay with infinite dosage using vertical Franz diffusion cells
Format: in vitro ADME, pig
Settings: female, white/landrace, pig; infinite dose 300 µL in propylene glycol (DS 3%, IBU 1%, LIDO 2%, CAF 1% w/v), mean ± SD, n = 3; read-out: Kp (permeability coefficient) (converted)
Experimental: A porcine skin membrane was employed for both the permeation and penetration assays. […] The skin was provided by the Department of Cardiology of the Hospital Clinic (Barcelona, Spain). […] Once TEWL was measured, 300 μL (infinite dose) of the four active solutions was applied in triplicate to each Franz cell (Hanson Research, Chatworths, CA, USA) and donor compartment was sealed to donor chamber to avoid evaporation. […]
Result type: Papp (×10⁻⁶ cm/s)
Express it in ×10⁻⁶ cm/s; write the number only.

O=C(O)Cc1ccccc1Nc1c(Cl)cccc1Cl [Diclofenac sodium]
0.0442

Prompt: Which measured Papp value corresponds to CC(C)Cc1ccc(C(C)C(=O)O)cc1 (stereo not drawn) [Ibuprofen, ibuprofen] ?
Completion: 0.0694

Prompt: For Cn1c(=O)c2c(ncn2C)n(C)c1=O [Caffeine, caffeine] , what is its reported Papp?
Completion: 0.0242

Entry source: paper PMC8000447
